- EXPERIMENT: Tissue distribution of THP, DHC and protopine in rat tissues after gastric gavage administration (HPLC-UV, non-compartmental analysis)
- Assay type: in vivo, Wistar male rats
- EXPERIMENTAL_PARAMETERS: male, Wistar, po, 6.45 mg/kg, rat cerebrum, read-out: MRT of THP
OBSERVABLE: MRT (h)

>>> readout_value("COc1cc2c(cc1OC)[C@@H]1Cc3ccc(OC)c(OC)c3CN1CC2 [THP, tetrahydropalmatine]")
8

###

- EXPERIMENT: Tissue distribution of THP, DHC and protopine in rat tissues after gastric gavage administration (HPLC-UV, non-compartmental analysis)
- Assay type: in vivo, Wistar male rats
- EXPERIMENTAL_PARAMETERS: male, Wistar, po, 26.1 mg/kg, rat striatum, read-out: Cmax of DHC
OBSERVABLE: Cmax (ng/mL)

>>> readout_value("COc1cc2c(cc1OC)-c1c(C)c3ccc(OC)c(OC)c3c[n+]1CC2 [DHC, dehydrocorydaline]")
60

###

- EXPERIMENT: Tissue distribution of THP, DHC and protopine in rat tissues after gastric gavage administration (HPLC-UV, non-compartmental analysis)
- Format: in vivo, Wistar male rats
- EXPERIMENTAL_PARAMETERS: male, Wistar, po, 4.52 mg/kg, rat cerebellum, read-out: Tmax of protopine
OBSERVABLE: Tmax (h)

>>> readout_value("CN1CCc2cc3c(cc2C(=O)Cc2ccc4c(c2C1)OCO4)OCO3")
2.08

###

- EXPERIMENT: Tissue distribution of THP, DHC and protopine in rat tissues after gastric gavage administration (HPLC-UV, non-compartmental analysis)
- Assay type: in vivo, Wistar male rats
- EXPERIMENTAL_PARAMETERS: male, Wistar, po, 4.52 mg/kg, rat lung, read-out: Tmax of protopine
OBSERVABLE: Tmax

>>> readout_value("CN1CCc2cc3c(cc2C(=O)Cc2ccc4c(c2C1)OCO4)OCO3")
"5.22 h"

###

- EXPERIMENT: Tissue distribution of THP, DHC and protopine in rat tissues after gastric gavage administration (HPLC-UV, non-compartmental analysis)
- Assay type: in vivo, Wistar male rats
- EXPERIMENTAL_PARAMETERS: male, Wistar, po, 26.1 mg/kg, rat striatum, read-out: AUC0–24 h of DHC
OBSERVABLE: AUC(0-t) (ng·h/mL)

>>> readout_value("COc1cc2c(cc1OC)-c1c(C)c3ccc(OC)c(OC)c3c[n+]1CC2 [DHC, dehydrocorydaline]")
210

###

- EXPERIMENT: Tissue distribution of THP, DHC and protopine in rat tissues after gastric gavage administration (HPLC-UV, non-compartmental analysis)
- Type: in vivo, Wistar male rats
- EXPERIMENTAL_PARAMETERS: male, Wistar, po, 6.45 mg/kg, rat kidney, read-out: Tmax of THP
OBSERVABLE: Tmax (min)

>>> readout_value("COc1cc2c(cc1OC)[C@@H]1Cc3ccc(OC)c(OC)c3CN1CC2 [THP, tetrahydropalmatine]")
19.8

###

- EXPERIMENT: Tissue distribution of THP, DHC and protopine in rat tissues after gastric gavage administration (HPLC-UV, non-compartmental analysis)
- Format: in vivo, Wistar male rats
- EXPERIMENTAL_PARAMETERS: male, Wistar, po, 6.45 mg/kg, rat heart, read-out: Cmax of THP
OBSERVABLE: Cmax (ng/mL)

>>> readout_value("COc1cc2c(cc1OC)[C@@H]1Cc3ccc(OC)c(OC)c3CN1CC2 [THP, tetrahydropalmatine]")
600
